# System: B cell line, TNFa signaling counterscreen reporter
# Protocol details: TNFa signaling inhibitors in B cell line, dose response, counter-screen (AID 1259334);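 also: cells stimulated with TNFa after compound preincubation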
Calls of active or inactive are those of the source. Rule as the data show it: active = AC50 below about 11 µM.
Outcomes you can answer with include only these: active, inactive

The following compounds have reported results that may help.
# Compound, Group
measured = [
    ("CC(C)(C)CC(C)(C)c1ccc(O)c(Cc2ccc(Cl)cc2Cl)c1", "active"),
    ("O=C1CCCCC1Sc1nnc(-c2ccc3c(c2)OCO3)o1 (stereo not drawn)", "active"),
    ("COc1ccc(S(=O)(=O)Nc2ccc3c(c2)C(=O)N([C@H](C)CO)C[C@@H](C)[C@H](CN(C)Cc2ccc(C(F)(F)F)cc2)OCCCC[C@@H](C)O3)cc1", "active"),
    ("CCOC(=O)c1c(SCCN2CCCC2)n(-c2ccccc2)c(=S)n(-c2ccccc2)c1=O", "active"),
    ("C[C@@H]1CN([C@@H](C)CO)S(=O)(=O)c2ccc(C#Cc3ccccc3F)cc2O[C@H]1CN(C)C(=O)Cc1cccnc1", "inactive"),
    ("c1cc(-c2cnn3cc(-c4ccc(OCCN5CCCCC5)cc4)cnc23)ccn1", "active"),
]

Exercise: Which outcome did this test record for the compound O=C(CCN1CCC(c2ccccc2)C1)c1ccc2c(c1)OCCO2 (stereo not drawn) ?
Solution: active

* * *

# Test system: B cell line, TNFa signaling counterscreen reporter
# Protocol details: TNFa signaling inhibitors in B cell line, dose response, counter-screen (AID 1259334);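 also: cells stimulated with TNFa after compound preincubation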
Calls of active or inactive are those of the source. Cut-off read from the data, not from the text of the source: active = AC50 below about 11 µM.
Measured attribute: AC50

# Compound, AC50
data = [
    ("C[C@@H]1CN([C@@H](C)CO)C(=O)c2ccccc2-c2ccccc2CO[C@@H]1CN(C)C(=O)c1cc(Cl)cc(Cl)c1", "> 20 µM (inactive)"),
    ("CS(=O)(=O)c1ccc(C(=O)OCC(=O)NC(=O)C2CCCCC2)cc1[N+](=O)[O-]", "2.79 µM"),
    ("Cc1ccc(C(OCC(O)CNCc2ccc(F)cc2)c2ccccc2)cc1 (stereo not given)", "7.2 µM"),
    ("C[C@@H]1CN([C@H](C)CO)C(=O)c2ccccc2-c2ccccc2CO[C@@H]1CN(C)Cc1ccccc1C(F)(F)F", "10.7 µM"),
    ("C[C@@H]1CN([C@H](C)CO)C(=O)c2c(c3ccccc3n2C)-c2ccccc2CO[C@H]1CN(C)C(=O)c1cc(Cl)cc(Cl)c1", "> 20 µM (inactive)"),
]

Please go through the list and note AC50 for each compound.
1. COc1c(-c2coc3cc4c(cc3c2=O)CC(O)C(C)(C)O4)ccc2c1C=CC(C)(C)O2 (stereo not given)
2. N#C[C@@H]1[C@H](c2ccc(C#Cc3ccccc3F)cc2)[C@@H](CO)N1C(=O)C1CC1
3. CCN1/C(=C/c2sc(-c3ccccc3C)c[n+]2C)Sc2ccccc21
4. COc1cc(C(C)C)c2c(c1)S(=O)(=O)N(COc1cc(=O)n3cccc(OCCN4CCCCC4)c3n1)C2=O
5. COc1ccc(/C=C/C(=O)Nc2ccccc2C(=O)O)cc1OC
6. CC(C)c1c(O)ccc2c1CCC1C(C)(C)CCC[C@]21C (stereo not given in full)

Solution:
["11 µM", "3.39 µM", "0.574 µM", "3.4 µM", "8.81 µM", "5.43 µM"]

Please go through the list and note AC50 for each compound.
1. COc1ccc(C[C@H]2NC[C@H](O)[C@H]2OC(C)=O)cc1
2. CCS(=O)(=O)N1Cc2ccccc2CC1C(=O)Nc1nc2ccccc2s1 (stereo not given)
3. COC(=O)c1ccc2nc(NC(=O)C(C)(C)C)sc2c1
4. N#CC(C#N)=NNc1cccc(Cl)c1
5. C[C@@H]1CN([C@@H](C)CO)C(=O)c2c(c3ccccc3n2C)-c2ccccc2CO[C@H]1CN(C)C(=O)Nc1cccc(C(F)(F)F)c1
6. Cc1ccc(CN2CC(C(=O)Nc3ncc(C)s3)CC2=O)cc1 (stereo not given)
7. CC(=NNc1ccc2ccccc2n1)c1ccccc1O

Solution:
1. 0.0144 µM
2. 6.66 µM
3. 2.32 µM
4. 9.25 µM
5. 10.9 µM
6. 4.2 µM
7. 1.52 µM

Please go through the list and note AC50 for each compound.
1. Cc1c(C(=O)c2cccc3ccccc23)c2cccc3c2n1[C@H](CN1CCOCC1)CO3
2. COc1ccccc1NC(c1cccnc1)c1ccc2cccnc2c1O (stereo not given)

Solution:
1. 10.2 µM
2. 8.22 µM

// provenance: PubChem BioAssay AID1259334
